System: KARPAS-45
Assay: selective drug sensitivity score (sDSS, relative to normal bone marrow) (sDSS (score)); higher = more potent and effective on the cell line relative to normal bone marrow cells;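 note: ALL cell lines in 384-well plates, five doses spanning 10,000-fold, each plate scaled between vehicle and 100 µmol/L benzalkonium chloride controls, sDSS an adapted area-under-curve metric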
Conditions: 72 h
Labels assigned by selective drug sensitivity score range: range A (below 4), range B (4 to below 7), range C (7 or more)

Prompt: Textbook exercise: identify the category of the compound given here, O=C(Nc1cccc(Nc2ncc(Br)c(NCCc3cnc[nH]3)n2)c1)N1CCCC1 [BX-912] (top concentration 10000 nM) , according to its measured value.
Completion: range A

Prompt: Field: class (selective drug sensitivity score) — entry: CC(C)Oc1ccc(C(=O)N[C@H](CNC(=O)CN(C)C)Cc2ccc(-c3cn4cccc([C@H](C)O)c4n3)cc2)cc1Cl (top concentration 10000 nM)
Completion: range C

Prompt: Hello team, could you let me know which band the following compound falls into: CC1(C)OCCn2c1nc1c(N3CCOCC3)nc(-c3cnc(N)nc3)nc12 [GDC-0084] (top concentration 10000 nM)
Completion: range B

Prompt: Category of C[C@@H]1C[C@H]2[C@@H]3CCC4=CC(=O)C=C[C@]4(C)[C@@]3(F)[C@@H](O)C[C@]2(C)[C@@]1(O)C(=O)CO [Dexamethasone] (top concentration 10000 nM) :
Completion: range C

Prompt: # bin lookup: classify Cc1cc2c(C(C)C)c(O)c(O)c(C=O)c2c(O)c1-c1c(C)cc2c(C(C)C)c(O)c(O)c(C=O)c2c1O [AT-101] (top concentration 100000 nM) by its selective drug sensitivity score
Completion: range B

Prompt: Class label required: NS(=O)(=O)OC[C@@H]1C[C@@H](n2ccc3c(N[C@H]4CCc5ccccc54)ncnc32)C[C@@H]1O [Pevonedistat] (top concentration 10000 nM)
Completion: range C

Prompt: Into which category would you place Cn1nccc1Nc1nccc(-c2ccn([C@H](CO)c3ccc(Cl)c(F)c3)c(=O)c2)n1 [Ravoxertinib] (top concentration 10000 nM) ?
Completion: range A

Prompt: Band of CO[C@H]1C[C@@H]2CC[C@@H](C)[C@@](O)(O2)C(=O)C(=O)N2CCCC[C@H]2C(=O)O[C@H]([C@H](C)C[C@@H]2CC[C@@H](OC(=O)C(C)(CO)CO)[C@H](OC)C2)CC(=O)[C@H](C)/C=C(\C)[C@@H](O)[C@@H](OC)C(=O)[C@H](C)C[C@H](C)/C=C/C=C/C=C/1C [Temsirolimus] (top concentration 100 nM) ?
Completion: range A

Prompt: Lab note: sort Nc1ncnc2c1nc(Cl)n2[C@@H]1O[C@H](CO)[C@@H](O)[C@H]1O [8-chloro-adenosine] (top concentration 50000 nM) into the matching selective drug sensitivity score band.
Completion: range A

Prompt: Which bin, given its selective drug sensitivity score, does CCCCc1nc2cc(/C=C/C(=O)NO)ccc2n1CCN(CC)CC [Pracinostat] (top concentration 10000 nM) occupy?
Completion: range C

----------
Record form. Attribute: selective drug sensitivity score. Fill in for each entry.
Tested on: HAL-01
Test: selective drug sensitivity score (sDSS, relative to normal bone marrow) (sDSS (score)); higher = more potent and effective on the cell line relative to normal bone marrow cells
Settings: 72 h
Give the figure by itself; no unit, no explanation.

Prompt: GET /values?readout=selective drug sensitivity score&item= N#Cc1ccnc(N2C(=O)CC[C@H]2C(=O)N(c2cncc(F)c2)[C@H](C(=O)NC2CC(F)(F)C2)c2ccccc2Cl)c1 [Ivosidenib] (top concentration 10000 nM)
Completion: 3.2

Prompt: Could you share which selective drug sensitivity score value was measured for CCn1c(-c2nonc2N)nc2cnc(Oc3cccc(NC(=O)c4ccc(OCCN5CCOCC5)cc4)c3)cc21 (top concentration 10000 nM) ?
Completion: 9.96

Prompt: What measured selective drug sensitivity score goes with O=C(Nc1cccnc1)N1CCC(Cc2cccc(Oc3ccc(C(F)(F)F)cn3)c2)CC1 [PF-3845] (top concentration 10000 nM) ?
Completion: -0.84
